# Target System: T1, human α4β1 integrin on cells (human, UniProt P13612 34-1032; P05556 21-798)
# T1 construct: whole, on cells; also called α4β1 cell; Jurkat cells
# Test Summary: Jurkat cell adhesion to VCAM-1
pIC50: −log10 of the molar value. Bridge positions count the residues as written; N and C are the ends. Square brackets hold non-standard residues; d marks the D form. Phe(4-tBu) = CC(C)(C)c1ccc(C[C@H](N)C(=O)O)cc1; NMeR = CN[C@@H](CCCNC(=N)N)C(=O)O; β3hE = N[C@@H](CCC(=O)O)CC(=O)O; Pen = CC(C)(S)[C@H](N)C(=O)O
# pIC50 values compiled below

Binder	pIC50
Ac-[Pen][NMeR]SDTL[Pen][Phe(4-tBu)][β3hE][dK]-NH2 (disulfide 1-7; not fully specified (residue 10); printed as (Ac Pen N-Me-R S D T L Pen F(4-tBu) b-H-E k NH2)2 DIG, disulfide Pen-Pen; also: dimer, two subunits joined by DIG linker, also called peptide 218) [SEQ ID NO: 218]	< 4.00
Ac-CRSDTLCGEK-NH2 (disulfide 1-7 (inferred); also: dimer linked by PEG25, attachment not given here, also called peptide 197) [SEQ ID NO: 197]	< 4.00
